# System: M14
# test-name: Growth inhibition of human M14 cells assessed as cell growth at 10^-5 M incubated for 48 hrs by sulforhodamine B assay relative to control
# Type: functional
# test-conditions: M14, 48 h, read-out: Activity
Readings of growth at 10 µM for the listed molecules

# smiles-string, experimental-system, growth at 10 µM / %
measured = [
    ("BrCCCOc1ccc(Nc2ncnc3c2cnn3-c2ccccc2)cc1", "M14", 100),
    ("Cc1nn(-c2ccccc2)c2ncnc(Nc3ccc(OCCCBr)cc3)c12", "M14", 91.3),
    ("Cc1nc(Nc2ccc(OCCCBr)cc2)c2cnn(-c3ccccc3)c2n1", "M14", 94.5),
    ("Cc1nc(Nc2ccc(OCCCBr)cc2)c2c(C)nn(-c3ccccc3)c2n1", "M14", 94),
]

----------
Catalogue of compounds with associated growth at 10 µM
# System: HCT-15
# test-name: Growth inhibition of human HCT15 cells assessed as cell growth at 10^-5 M incubated for 48 hrs by sulforhodamine B assay relative to control
# Format: functional
# test-conditions: HCT-15, 48 h, read-out: Activity

# smiles-string, unit-info, growth at 10 µM
records = [
    ("BrCCCOc1ccc(Nc2ncnc3c2cnn3-c2ccccc2)cc1", "%", 59.2),
    ("Cc1nc(Nc2ccc(OCCCBr)cc2)c2c(C)nn(-c3ccccc3)c2n1", "%", 94),
    ("Cc1nn(-c2ccccc2)c2ncnc(Nc3ccc(OCCCBr)cc3)c12", "%", 90),
    ("Cc1nc(Nc2ccc(OCCCBr)cc2)c2cnn(-c3ccccc3)c2n1", "%", 99.2),
]

----------
# Test system: MDA-MB-468
# test-name: Growth inhibition of human MDA-MB-468 cells assessed as cell growth at 10^-5 M incubated for 48 hrs by sulforhodamine B assay relative to control
# Type: functional
# test-conditions: MDA-MB-468, 48 h, read-out: Activity

# smiles-string, unit-info, growth at 10 µM
data = [
    ("Cc1nn(-c2ccccc2)c2ncnc(Nc3ccc(OCCCBr)cc3)c12", "%", 95.5),
    ("Cc1nc(Nc2ccc(OCCCBr)cc2)c2c(C)nn(-c3ccccc3)c2n1", "%", 95),
    ("BrCCCOc1ccc(Nc2ncnc3c2cnn3-c2ccccc2)cc1", "%", 99.7),
    ("Cc1nc(Nc2ccc(OCCCBr)cc2)c2cnn(-c3ccccc3)c2n1", "%", 98.9),
]

----------
Catalogue of molecules with associated growth at 10 µM
# Test system: HT-29
# test-name: Growth inhibition of human HT-29 cells assessed as cell growth at 10^-5 M incubated for 48 hrs by sulforhodamine B assay relative to control
# Type: functional
# test-conditions: HT-29, 48 h, read-out: Activity
outcome-measure: growth at 10 µM (%)

# smiles-string, experimental-system, measured-result
measured = [
    ("Cc1nc(Nc2ccc(OCCCBr)cc2)c2cnn(-c3ccccc3)c2n1", "HT-29", 96.6),
    ("BrCCCOc1ccc(Nc2ncnc3c2cnn3-c2ccccc2)cc1", "HT-29", 99.4),
    ("Cc1nn(-c2ccccc2)c2ncnc(Nc3ccc(OCCCBr)cc3)c12", "HT-29", 58.2),
    ("Cc1nc(Nc2ccc(OCCCBr)cc2)c2c(C)nn(-c3ccccc3)c2n1", "HT-29", 93.7),
]

----------
# Tested on: SNB-75
# test-name: Growth inhibition of human SNB75 cells assessed as cell growth at 10^-5 M incubated for 48 hrs by sulforhodamine B assay relative to control
# Format: functional
# test-conditions: SNB-75, 48 h, read-out: Activity

# smiles-string, unit-info, growth at 10 µM
data = [
    ("Cc1nc(Nc2ccc(OCCCBr)cc2)c2cnn(-c3ccccc3)c2n1", "%", 88.7),
    ("BrCCCOc1ccc(Nc2ncnc3c2cnn3-c2ccccc2)cc1", "%", 93.3),
    ("Cc1nc(Nc2ccc(OCCCBr)cc2)c2c(C)nn(-c3ccccc3)c2n1", "%", 105),
    ("Cc1nn(-c2ccccc2)c2ncnc(Nc3ccc(OCCCBr)cc3)c12", "%", 115),
]

----------
# Test system: RXF 393
# test-name: Growth inhibition of human RXF393 cells assessed as cell growth at 10^-5 M incubated for 48 hrs by sulforhodamine B assay relative to control
# Type: functional
# test-conditions: RXF 393, 48 h, read-out: Activity

# smiles-string, growth at 10 µM, %
data = [
    ("Cc1nn(-c2ccccc2)c2ncnc(Nc3ccc(OCCCBr)cc3)c12", 102),
    ("BrCCCOc1ccc(Nc2ncnc3c2cnn3-c2ccccc2)cc1", 105),
    ("Cc1nc(Nc2ccc(OCCCBr)cc2)c2cnn(-c3ccccc3)c2n1", 104),
    ("Cc1nc(Nc2ccc(OCCCBr)cc2)c2c(C)nn(-c3ccccc3)c2n1", 97.9),
]

----------
# Tested on: BT-549
# test-name: Growth inhibition of human BT549 cells assessed as cell growth at 10^-5 M incubated for 48 hrs by sulforhodamine B assay relative to control
# Assay type: functional
# test-conditions: BT-549, 48 h, read-out: Activity

# smiles-string, growth at 10 µM / %
rows = [
    ("Cc1nc(Nc2ccc(OCCCBr)cc2)c2c(C)nn(-c3ccccc3)c2n1", 91.6),
    ("Cc1nn(-c2ccccc2)c2ncnc(Nc3ccc(OCCCBr)cc3)c12", 97.8),
    ("BrCCCOc1ccc(Nc2ncnc3c2cnn3-c2ccccc2)cc1", 93.4),
    ("Cc1nc(Nc2ccc(OCCCBr)cc2)c2cnn(-c3ccccc3)c2n1", 92.9),
]

----------
Consider the following compounds and their measured growth at 10 µM readings.
# System: MDA-MB-435
# test-name: Growth inhibition of human MDA-MB-435 cells assessed as cell growth at 10^-5 M incubated for 48 hrs by sulforhodamine B assay relative to control
# Format: functional
# test-conditions: MDA-MB-435, 48 h, read-out: Activity
outcome-measure: growth at 10 µM (%)

# smiles-string, outcome-measure, measured-result
measured = [
    ("Cc1nc(Nc2ccc(OCCCBr)cc2)c2cnn(-c3ccccc3)c2n1", "growth at 10 µM", 107),
    ("Cc1nc(Nc2ccc(OCCCBr)cc2)c2c(C)nn(-c3ccccc3)c2n1", "growth at 10 µM", 100),
    ("BrCCCOc1ccc(Nc2ncnc3c2cnn3-c2ccccc2)cc1", "growth at 10 µM", 101),
    ("Cc1nn(-c2ccccc2)c2ncnc(Nc3ccc(OCCCBr)cc3)c12", "growth at 10 µM", 100),
]

----------
# Test system: COLO 205
# test-name: Growth inhibition of human COLO205 cells assessed as cell growth at 10^-5 M incubated for 48 hrs by sulforhodamine B assay relative to control
# Format: functional
# test-conditions: COLO 205, 48 h, read-out: Activity
Each item that follows carries a reported growth at 10 µM.

# smiles-string, growth at 10 µM / %
data = [
    ("Cc1nc(Nc2ccc(OCCCBr)cc2)c2c(C)nn(-c3ccccc3)c2n1", 108),
    ("Cc1nn(-c2ccccc2)c2ncnc(Nc3ccc(OCCCBr)cc3)c12", 105),
    ("Cc1nc(Nc2ccc(OCCCBr)cc2)c2cnn(-c3ccccc3)c2n1", 106),
    ("BrCCCOc1ccc(Nc2ncnc3c2cnn3-c2ccccc2)cc1", 103),
]

----------
# Tested on: Malme-3M
# test-name: Growth inhibition of human MALME-3M cells assessed as cell growth at 10^-5 M incubated for 48 hrs by sulforhodamine B assay relative to control
# Format: functional
# test-conditions: read-out: Activity
Overview of recorded growth at 10 µM for various compounds
outcome-measure: growth at 10 µM (%)

# smiles-string, outcome-measure, measured-result
data = [
    ("Cc1nc(Nc2ccc(OCCCBr)cc2)c2c(C)nn(-c3ccccc3)c2n1", "growth at 10 µM", 107),
    ("Cc1nc(Nc2ccc(OCCCBr)cc2)c2cnn(-c3ccccc3)c2n1", "growth at 10 µM", 98.2),
    ("Cc1nn(-c2ccccc2)c2ncnc(Nc3ccc(OCCCBr)cc3)c12", "growth at 10 µM", 106),
    ("BrCCCOc1ccc(Nc2ncnc3c2cnn3-c2ccccc2)cc1", "growth at 10 µM", 112),
]

----------
# System: SK-MEL-2
# test-name: Growth inhibition of human SK-MEL-2 cells assessed as cell growth at 10^-5 M incubated for 48 hrs by sulforhodamine B assay relative to control
# Format: functional
# test-conditions: SK-MEL-2, 48 h, read-out: Activity
outcome-measure: growth at 10 µM

# smiles-string, experimental-system, measured-result
data = [
    ("Cc1nc(Nc2ccc(OCCCBr)cc2)c2c(C)nn(-c3ccccc3)c2n1", "SK-MEL-2", "91.5%"),
    ("Cc1nc(Nc2ccc(OCCCBr)cc2)c2cnn(-c3ccccc3)c2n1", "SK-MEL-2", "98%"),
    ("Cc1nn(-c2ccccc2)c2ncnc(Nc3ccc(OCCCBr)cc3)c12", "SK-MEL-2", "84%"),
    ("BrCCCOc1ccc(Nc2ncnc3c2cnn3-c2ccccc2)cc1", "SK-MEL-2", "98%"),
]
